Source: PubChem BioAssay (NCATS)

test system: ECU; assay: qHTS profiling for inhibitors of Plasmodium falciparum proliferation (AID 504749); note: nearly all actives have a fitted effect of over 60% in size; settings: P. falciparum in erythrocytes, SYBR Green DNA, 72 h; series mostly up to 28.7 µM
Records with an inconclusive call do not appear. Calls of active or inactive are those of the source. Calls come from the whole dose curve; as a rule, active = well fitted inhibition curve with a large enough effect; inconclusive = small, poorly fitted or top-dose-only effect; inactive = flat fitted curve, though single readings scatter.
valueKind: outcome

Example entries begin here.
- compound: "NC(=O)NS(=O)(=O)c1ccc(N)cc1"
  target: "ECU"
  result: "inactive"
- compound: "Cc1ccc(S(=O)(=O)NC(=O)NC2CCCCCCC2)cc1"
  target: "ECU"
  result: "inactive"
- compound: "Nc1ccc(S(=O)(=O)c2ccc(N)cc2)cc1"
  target: "ECU"
  result: "inactive"
- compound: "CC(C)C[C@@H](N)C(=O)O"
  target: "ECU"
  result: "inactive"
- compound: "CC(C)CCCC(C)CCCC(C)CCCCC(C)CCCC(C)CCCC(C)C (stereo not drawn)"
  target: "ECU"
  result: "inactive"

Field: next compound
What outcome value was documented for this compound, CCCCCCCCCCC(CO)CCCCCCCC (stereo not drawn) ?
inactive
